Target: PMPMEase (Sus scrofa, UniProt Q29550)
Test: PMPMEase enzyme assay with RD-PNB substrate
Format: biochemical, porcine
Details: purified PMPMEase 5 μg, RD-PNB 1 mM, 15 min pre-incubation, 37°C, pH 7.4
metric-name: IC50 (µM)
Numbers only; they are read as µM.

Using the record for CCCCCCCCCCCC(=O)O , report its IC50. 230

----------
Target: PMPMEase (Sus scrofa)
Experiment: PMPMEase enzyme assay with RD-PNB substrate
Format: biochemical, porcine
Items are presented alongside their recorded log10 IC50.
// units: µM (pre-log); metric: IC50; scale: log10

Solved cases below.
CCCCC/C=C\C/C=C\C/C=C\C/C=C\CCCC(=O)O [Arachidonic acid] : 0.82
CCCCC[C@H](O)/C=C/[C@H]1C=CC(=O)[C@@H]1C/C=C\CCCC(=O)O [Prostaglandin A2] : 2.62
CC/C=C\C/C=C\C/C=C\C/C=C\C/C=C\CCCC(=O)O [Eicosapentaenoic acid] : 1.08
CC/C=C\C/C=C\C/C=C\CCCCCCCC(=O)O [Linolenic acid] : 1.34
CCCCCCCCCCCCCC(=O)O [Myristic acid] : 2.00

# input for lookup
Form field: reported log10 IC50 of CCCCC/C=C\C/C=C\CCCCCCCC(=O)O [Linoleic acid] 1.81

----------
Biological target: PMPMEase (Sus scrofa, UniProt Q29550)
Assay: PMPMEase enzyme assay with RD-PNB substrate
Type: biochemical, porcine
Conditions: purified PMPMEase 5 μg, RD-PNB 1 mM, 37°C, pH 7.4
metric-name: Ki

CCCCC[C@H](O)/C=C/[C@@H]1[C@@H](CCCCCCC(=O)O)[C@H](O)C[C@H]1O : > 28 µM

Now consider the entry below.
Param item = CCCCCCCCCCCC(=O)O ; retrieve measured Ki. 6.5 µM

----------
Target: PMPMEase (Sus scrofa)
Assay: PMPMEase enzyme assay with RD-PNB substrate
Assay type: biochemical, porcine
metric-name: pIC50
FYI, pIC50 means -log10 of a concentration in mol per litre.

CCCCC[C@H](O)/C=C/C1=C(CCCCCCC(=O)O)C(=O)CC1 : 3.24

// below: pIC50 requested for another molecule
Look up pIC50 for this molecule: CC/C=C\C/C=C\C/C=C\C/C=C\C/C=C\C/C=C\CCC(=O)O 3.89

----------
Target: PMPMEase (Sus scrofa, UniProt Q29550)
Sequence (Q29550 19-566): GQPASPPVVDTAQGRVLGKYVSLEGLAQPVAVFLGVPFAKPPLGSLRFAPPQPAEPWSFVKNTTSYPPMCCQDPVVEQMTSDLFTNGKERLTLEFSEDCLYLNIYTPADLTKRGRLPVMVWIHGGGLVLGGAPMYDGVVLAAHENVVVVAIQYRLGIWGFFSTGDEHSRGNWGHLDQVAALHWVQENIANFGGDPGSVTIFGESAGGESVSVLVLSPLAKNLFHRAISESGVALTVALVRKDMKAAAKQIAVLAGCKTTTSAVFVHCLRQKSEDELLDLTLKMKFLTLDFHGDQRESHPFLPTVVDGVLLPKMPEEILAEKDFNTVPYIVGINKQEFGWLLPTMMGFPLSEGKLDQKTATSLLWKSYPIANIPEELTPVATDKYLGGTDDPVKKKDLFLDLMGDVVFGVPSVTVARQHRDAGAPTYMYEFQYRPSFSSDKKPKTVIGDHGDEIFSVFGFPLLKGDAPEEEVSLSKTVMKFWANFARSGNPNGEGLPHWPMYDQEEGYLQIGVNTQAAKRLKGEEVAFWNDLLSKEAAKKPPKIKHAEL
Assay: PMPMEase enzyme assay with RD-PNB substrate
Assay type: biochemical, porcine
The molecules listed here are annotated with their IC50.

Example molecules with recorded IC50:
CCCCCCCC/C=C\CCCCCCCC(=O)O : 53 µM
CCCCC[C@H](O)/C=C/[C@H]1[C@H](O)CC(=O)[C@@H]1CCCCCCC(=O)O [Prostaglandin E1] : > 1000 µM
CCCCC[C@H](O)/C=C/[C@H]1[C@H](O)CC(=O)[C@@H]1C/C=C\CCCC(=O)O [Prostaglandin E2] : > 1000 µM
CCCCCCCCCCCCCCCCCCCC(=O)O : > 1000 µM
CCCCC[C@H](O)/C=C/[C@@H]1[C@@H](C/C=C\CCCC(=O)O)[C@@H](O)C[C@H]1O : > 1000 µM
CCCCC[C@H](O)/C=C/[C@H]1C=CC(=O)[C@@H]1CCCCCCC(=O)O : > 1000 µM
CCCCCC/C=C\CCCCCCCC(=O)O : 37 µM
CCCCCCCC/C=C/CCCCCCCC(=O)O : > 1000 µM

Now consider a different molecule.
Which IC50 is reported for this molecule? CCCC/C=C\CCCCCCCC(=O)O 63 µM
